Listing of recorded IC50 by entry.
# Test target: recombinant human adrenergic beta 1 receptors (Homo sapiens, UniProt P08588)
# Construct: purchased Euroscreen
# Sequence (P08588 whole entry): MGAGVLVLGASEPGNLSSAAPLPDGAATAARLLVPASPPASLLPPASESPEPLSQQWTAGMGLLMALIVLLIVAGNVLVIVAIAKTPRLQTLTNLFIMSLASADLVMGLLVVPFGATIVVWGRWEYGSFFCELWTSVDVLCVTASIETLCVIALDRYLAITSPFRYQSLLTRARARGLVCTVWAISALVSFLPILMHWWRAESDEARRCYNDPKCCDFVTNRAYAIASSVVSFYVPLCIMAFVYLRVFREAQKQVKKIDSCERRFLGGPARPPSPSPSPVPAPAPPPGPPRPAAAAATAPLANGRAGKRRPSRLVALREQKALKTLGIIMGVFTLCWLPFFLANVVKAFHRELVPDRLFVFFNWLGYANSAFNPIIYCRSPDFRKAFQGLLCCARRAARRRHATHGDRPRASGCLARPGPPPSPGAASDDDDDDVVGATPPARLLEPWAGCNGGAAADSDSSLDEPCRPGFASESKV
# Measurement notes: Adrenergic β1 selectivity binding assay ([125I]-Iodocyanopindolol)
# Assay context: inhibition of [125I]-Iodocyanopindolol (0.036 nM) binding; read-out: β1 bind p IC50 (converted)
Structures can show the parent of a compound that is named as a salt.
Endpoint label: IC50 (nM)

Compound: O=C(CCNCCc1ccccc1Cl)N(CCNCCc1ccc(O)c2[nH]c(=O)sc12)C1CCC(F)(F)CC1 [Example 46, bis-trifluoroacetic acid salt]
Endpoint label: IC50
Obs value: 1580

Compound: CC(C)(CO)CN(CCNCCc1ccc(O)c2[nH]c(=O)sc12)C(=O)CCNCCc1cccc(Cl)c1Cl [Example 67, bis-trifluoroacetic acid salt]
Endpoint label: IC50
Obs value: 1000

Compound: O=C(CCNCCc1ccc(O)c2[nH]c(=O)sc12)N(CCNCCc1ccc(O)c2[nH]c(=O)sc12)C1CCCCCC1 [Example 87, bis-trifluoroacetic acid salt]
Endpoint label: IC50
Obs value: 794

Compound: O=C(CCNCCc1ccc(Cl)c(Cl)c1)N(CCNCCc1ccc(O)c2[nH]c(=O)sc12)C1CCC(F)(F)CC1 [Example 49, bis-trifluoroacetic acid salt]
Endpoint label: IC50
Obs value: 1580

Compound: Cc1cccc(CCNCCC(=O)N(CCNCCc2ccc(O)c3[nH]c(=O)sc23)C2CCOCC2)c1 [Example 25, bis-trifluoroacetic acid salt]
Endpoint label: IC50
Obs value: 5010

Compound: CC(C)(C)CN(CCNCCc1ccc(O)c2[nH]c(=O)sc12)C(=O)CCNCCc1ccccc1 [Example 6, bis-trifluoroacetic acid salt]
Endpoint label: IC50
Obs value: 794

----------
# Test target: recombinant human adrenergic beta 1 receptors (Homo sapiens, UniProt P08588)
# Construct: purchased Euroscreen
# Measurement notes: Adrenergic β1 selectivity binding assay ([125I]-Iodocyanopindolol)
# Assay context: inhibition of [125I]-Iodocyanopindolol (0.036 nM) binding; read-out: β1 bind p IC50 (converted)
Where a name gives a salt, the structure may show the parent alone.
Listing of recorded IC50 by entry.

Molecule: O=C(CCNCCc1ccc(F)cc1)N(CCNCCc1ccc(O)c2[nH]c(=O)sc12)CC12CC3CC(CC(C3)C1)C2 [Example 61, bis-trifluoroacetic acid salt]
Test target: recombinant human adrenergic beta 1 receptors (Homo sapiens, UniProt P08588)
IC50, nM: 2510
--
Molecule: O=C(CCNCCc1cccc(F)c1)N(CCNCCc1ccc(O)c2[nH]c(=O)sc12)C1CCCCCC1 [Example 36, bis-trifluoroacetic acid salt]
Test target: recombinant human adrenergic beta 1 receptors (Homo sapiens, UniProt P08588)
IC50, nM: 3160
--
Molecule: O=C(CCNCCc1cccc(C(F)(F)F)c1)N(CCNCCc1ccc(O)c2[nH]c(=O)sc12)C1CCCCCC1 [Example 82, bis-trifluoroacetic acid salt]
Test target: recombinant human adrenergic beta 1 receptors (Homo sapiens, UniProt P08588)
IC50, nM: 2510
--
Molecule: CCCC[C@@H](C)N(CCNCCc1ccc(O)c2[nH]c(=O)sc12)C(=O)CCNCCc1ccccc1 [Example 101, bis-trifluoroacetic acid salt]
Test target: recombinant human adrenergic beta 1 receptors (Homo sapiens, UniProt P08588)
IC50, nM: 3980
--
Molecule: O=C(CCNCCc1ccccc1Cl)N(CCNCCc1ccc(O)c2[nH]c(=O)sc12)C1CCCCC1
Test target: recombinant human adrenergic beta 1 receptors (Homo sapiens, UniProt P08588)
IC50, nM: 3160
--
Molecule: O=C(CCNCCc1cccc(Cl)c1)N(CCNCCc1ccc(O)c2[nH]c(=O)sc12)C1CCCCCC1 [Example 50, bis-trifluoroacetic acid salt]
Test target: recombinant human adrenergic beta 1 receptors (Homo sapiens, UniProt P08588)
IC50, nM: 794
--
Molecule: O=C(CCNCCc1cccc(Cl)c1)N(CCNCCc1ccc(O)c2[nH]c(=O)sc12)C1CCCC1 [Example 30, bis-trifluoroacetic acid salt]
Test target: recombinant human adrenergic beta 1 receptors (Homo sapiens, UniProt P08588)
IC50, nM: 3160
--
Molecule: O=C(CCNCCc1ccccc1)N(CCNCCc1ccc(O)c2[nH]c(=O)sc12)C1CCC(F)(F)CC1 [Example 4, bis-trifluoroacetic acid salt]
Test target: recombinant human adrenergic beta 1 receptors (Homo sapiens, UniProt P08588)
IC50, nM: 2510
--
Molecule: CCCC[C@H](C)N(CCNCCc1ccc(O)c2[nH]c(=O)sc12)C(=O)CCNCCc1ccccc1 [Example 102, bis-trifluoroacetic acid salt]
Test target: recombinant human adrenergic beta 1 receptors (Homo sapiens, UniProt P08588)
IC50, nM: 1260
--
Molecule: O=C(CCNCCc1nc2ccccc2[nH]1)N(CCNCCc1ccc(O)c2[nH]c(=O)sc12)C1CCCCC1 [Example 77, tris-trifluoroacetic acid salt]
Test target: recombinant human adrenergic beta 1 receptors (Homo sapiens, UniProt P08588)
IC50, nM: 6310
--
Molecule: O=C(CCNCCc1ccccc1)N(CCNCCc1ccc(O)c2[nH]c(=O)sc12)C1CCCCCC1 [Example 98, dihydrobromide salt]
Test target: recombinant human adrenergic beta 1 receptors (Homo sapiens, UniProt P08588)
IC50, nM: 2000

----------
# Test target: recombinant human Dopamine Subtype D2s receptors (Homo sapiens)
# Construct: purchased Perkin Elmer
# Sequence (P14416 1-414 isoform P14416-2): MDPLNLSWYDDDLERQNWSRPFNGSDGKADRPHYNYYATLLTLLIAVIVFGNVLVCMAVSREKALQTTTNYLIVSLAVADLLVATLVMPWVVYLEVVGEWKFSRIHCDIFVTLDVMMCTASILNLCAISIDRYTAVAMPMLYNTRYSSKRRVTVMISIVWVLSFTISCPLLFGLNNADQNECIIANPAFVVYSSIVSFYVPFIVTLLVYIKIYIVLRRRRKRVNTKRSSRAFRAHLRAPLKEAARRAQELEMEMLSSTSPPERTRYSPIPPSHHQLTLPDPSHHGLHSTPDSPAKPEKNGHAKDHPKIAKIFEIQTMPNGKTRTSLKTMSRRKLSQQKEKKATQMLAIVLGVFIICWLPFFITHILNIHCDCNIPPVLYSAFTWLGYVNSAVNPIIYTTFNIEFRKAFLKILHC
# Measurement notes: Dopamine D2 selectivity binding assay ([3H]-spiperone)
# Assay context: inhibition of [3H]-spiperone (0.16 nM) binding; read-out: D2 bind pIC50 (converted)
Structures can show the parent of a compound that is named as a salt.
So basically every entry gets a class from its IC50, ranges being b0: < 80 nM; b1: ≥ 80 nM and < 400 nM; b2: ≥ 400 nM

Compound: O=C(CCNCCc1cc(F)ccc1F)N(CCNCCc1ccc(O)c2[nH]c(=O)sc12)C1CCCCC1 [Example 79, bis-trifluoroacetic acid salt]
Cat: b1
//
Compound: O=C(CCNCCc1ccccc1)N(CCNCCc1ccc(O)c2[nH]c(=O)sc12)C1CCCC1 [Example 2, bis-trifluoroacetic acid salt]
Cat: b1
//
Compound: O=C(CCNCCc1ccc(Cl)c(Cl)c1)N(CCNCCc1ccc(O)c2[nH]c(=O)sc12)C1CCOCC1 [Example 24, bis-trifluoroacetic acid salt]
Cat: b2
//
Compound: O=C(CCNCCc1cccc(F)c1)N(CCNCCc1ccc(O)c2[nH]c(=O)sc12)CC12CC3CC(CC(C3)C1)C2 [Example 60, bis-trifluoroacetic acid salt]
Cat: b2
//
Compound: CC(C)(CNCCC(=O)N(CCNCCc1ccc(O)c2[nH]c(=O)sc12)C1CCCCC1)c1ccccc1 [Example 21, bis-trifluoroacetic acid salt]
Cat: b2
//
Compound: O=C(CCNCCc1ccc(F)cc1)N(CCNCCc1ccc(O)c2[nH]c(=O)sc12)CC12CC3CC(CC(C3)C1)C2 [Example 61, bis-trifluoroacetic acid salt]
Cat: b2
//
Compound: O=C(CCNCCc1ccccc1Cl)N(CCNCCc1ccc(O)c2[nH]c(=O)sc12)C1CCC(F)(F)CC1 [Example 46, bis-trifluoroacetic acid salt]
Cat: b0
//
Compound: O=C(CCNCCc1cccs1)N(CCNCCc1ccc(O)c2[nH]c(=O)sc12)C1CCCCCC1 [Example 52, bis-trifluoroacetic acid salt]
Cat: b0
//
Compound: O=C(CCNCCc1ccc(F)c(F)c1)N(CCNCCc1ccc(O)c2[nH]c(=O)sc12)C1CCCCC1 [Example 73, bis-trifluoroacetic acid salt]
Cat: b1
//
Compound: O=C(CCNCCc1nc2ccccc2[nH]1)N(CCNCCc1ccc(O)c2[nH]c(=O)sc12)C1CCCCC1 [Example 77, tris-trifluoroacetic acid salt]
Cat: b1
//
Compound: COc1ccc(CCNCCC(=O)N(CCNCCc2ccc(O)c3[nH]c(=O)sc23)C2CCCCC2)cc1 [Example 68, bis-trifluoroacetic acid salt]
Cat: b0
//
Compound: O=C(CCNCCc1cccc(OC(F)F)c1)N(CCNCCc1ccc(O)c2[nH]c(=O)sc12)C1CCCCCC1 [Example 54, bis-trifluoroacetic acid salt]
Cat: b0
//
Compound: O=C(CCNCCc1ccc(Cl)cc1)N(CCNCCc1ccc(O)c2[nH]c(=O)sc12)C1CCOCC1 [Example 26, bis-trifluoroacetic acid salt]
Cat: b2
//
Compound: NS(=O)(=O)c1ccc(CCNCCC(=O)N(CCNCCc2ccc(O)c3[nH]c(=O)sc23)C2CCCCC2)cc1 [Example 69, bis-trifluoroacetic acid salt]
Cat: b1
//
Compound: CCCC[C@@H](C)N(CCNCCc1ccc(O)c2[nH]c(=O)sc12)C(=O)CCNCCc1ccccc1 [Example 101, bis-trifluoroacetic acid salt]
Cat: b0

----------
# Test target: recombinant human adrenergic beta 1 receptors (Homo sapiens, UniProt P08588)
# Construct: purchased Euroscreen
# Measurement notes: Adrenergic β1 selectivity binding assay ([125I]-Iodocyanopindolol)
# Assay context: inhibition of [125I]-Iodocyanopindolol (0.036 nM) binding; read-out: β1 bind p IC50 (converted)
# Protocol: Membranes containing recombinant human adrenergic beta 1 receptors were obtained from Euroscreen. […] Assays were performed in U-bottomed 96-well polypropylene plates. […] Five washes with 250 μL wash buffer (50 mM HEPES, 1 mM EDTA, 120 mM NaCl, pH 7.4) were performed at 4° C. to remove unbound radioactivity. […] The plates were sealed (TopSeal A) and filter-bound radioactivity was measured with a scintillation counter (TopCount, Packard BioScience) using a 3-minute counting protocol. […]
Counter-ions that a name gives are not always drawn.
Listing of recorded IC50 by entry.
Endpoint label: IC50

Compound: O=C(CCNCCc1cccs1)N(CCNCCc1ccc(O)c2[nH]c(=O)sc12)C1CCCCC1 [Example 35, bis-trifluoroacetic acid salt]
Endpoint label: IC50
Obs value: 3.98 µM
//
Compound: O=C(CCNCCc1cc(F)cc(F)c1)N(CCNCCc1ccc(O)c2[nH]c(=O)sc12)C1CCCCC1 [Example 78, bis-trifluoroacetic acid salt]
Endpoint label: IC50
Obs value: 3.98 µM
//
Compound: O=C(CCNCCc1ccc2c(c1)OCO2)N(CCNCCc1ccc(O)c2[nH]c(=O)sc12)C1CCCCC1 [Example 76, bis-trifluoroacetic acid salt]
Endpoint label: IC50
Obs value: 3.98 µM
//
Compound: O=C(CCNCCc1cccc(F)c1)N(CCNCCc1ccc(O)c2[nH]c(=O)sc12)CC12CC3CC(CC(C3)C1)C2 [Example 60, bis-trifluoroacetic acid salt]
Endpoint label: IC50
Obs value: 2 µM
